Entries and their EC50 (nM), HEK human IL-36R IL-8 luciferase reporter assay, 20 ng/ml hIL-36β values follow.
Target: T1, human IL-36R (on cells) (human, UniProt Q9HB29 20-575)
T1 sequence (looked up): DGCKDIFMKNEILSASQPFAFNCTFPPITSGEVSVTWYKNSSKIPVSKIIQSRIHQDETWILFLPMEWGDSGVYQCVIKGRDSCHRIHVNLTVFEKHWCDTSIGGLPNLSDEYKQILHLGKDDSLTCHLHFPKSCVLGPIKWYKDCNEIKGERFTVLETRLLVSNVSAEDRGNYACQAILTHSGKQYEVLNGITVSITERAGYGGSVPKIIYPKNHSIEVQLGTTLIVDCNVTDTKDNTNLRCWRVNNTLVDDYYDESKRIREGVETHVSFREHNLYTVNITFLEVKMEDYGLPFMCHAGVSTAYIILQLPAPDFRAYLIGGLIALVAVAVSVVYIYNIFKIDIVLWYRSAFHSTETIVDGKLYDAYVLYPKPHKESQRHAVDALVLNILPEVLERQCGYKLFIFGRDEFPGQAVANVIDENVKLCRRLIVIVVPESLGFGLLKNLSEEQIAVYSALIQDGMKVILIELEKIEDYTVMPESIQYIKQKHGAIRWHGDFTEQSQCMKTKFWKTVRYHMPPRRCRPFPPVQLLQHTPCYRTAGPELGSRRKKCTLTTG
Assay: cell-based or functional assay
# unit: nM | format: bare number

Hzd 5D3 (APE6194) (antibody, V domains shown, also called 5D3 Humanized) VH: QVQLVQSGAEVKKPGASVKVSCKASGYTFTNYWMNWVRQAPRQGLEWMGMFHPYGDVTRLNQKFKDRVTMTRDTSTSTVYMELSSLRSEDTAVYYCARTTSMIIGGFAYWGQGTLVTVSS VL: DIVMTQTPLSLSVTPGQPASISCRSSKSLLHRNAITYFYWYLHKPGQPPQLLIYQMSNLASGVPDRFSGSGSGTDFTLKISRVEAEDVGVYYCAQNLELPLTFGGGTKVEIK ... 0.3

Value lookup for EC50 (nM), HEK human IL-36R IL-8 luciferase reporter assay, 20 ng/ml hIL-36β; key = Chimeric 18D4 (APE3847) (antibody, V domains shown) VH: DVQFQESGPGLVKPSQSLSLTCTVTGYSITSDFAWNWIRQFPGNKLEWMGYISYSGDTNYNPSLKSRISITRDTSKNQFFLQLNSVTTEDTATYFCAIRGPYSFTYWGPGTLVTVSS VL: DIQMTQTTSSLSASLGDRVTINCRASQDINNYLNWYQQKPDGTIRLLIYYTSRLHSGVPSRFSPNGSGTDYSLTINNLEQEDIATYFCQQGHTLPWTFGGGTKLEIK
4.2

These entries and their values trace back to patent US20200087408A1.
